Assay: HILIC, Merck SeQuant ZIC-pHILIC, 150 × 2.1 mm, 5 µm, 0.1 mL/min, estimated dead time 3.3 min; A: acetonitrile; B: water + 10 mM ammonium carbonate; gradient (min/%B) 0/20 30/80
Details: stereoisomer not certain
Below, each entry is listed with its recorded LC retention time.
metric: LC retention time (min)

[[record]]
compound = "O=P(O)(O)OC(CO)CO [Glycerol-2-phosphate]"
unitstring = "min"
observedmeasurement = 12.2

[[record]]
compound = "O=C(O)C=C(CC(=O)O)C(=O)O [cis-Aconitate]"
unitstring = "min"
observedmeasurement = 15.5

[[record]]
compound = "NC(=O)c1ncn(C2OC(COP(=O)(O)O)C(O)C2O)c1N (centres undefined)"
unitstring = "min"
observedmeasurement = 12.7

[[record]]
compound = "Nc1ccn(C2OC(COP(=O)(O)OP(=O)(O)O)C(O)C2O)c(=O)n1 (centres undefined)"
unitstring = "min"
observedmeasurement = 14.7

[[record]]
compound = "CC(=O)NC1C(OP(=O)(O)OP(=O)(O)OCC2OC(n3ccc(=O)[nH]c3=O)C(O)C2O)OC(CO)C(O)C1O (centres undefined)"
unitstring = "min"
observedmeasurement = 12.8

[[record]]
compound = "O=C(O)CC(O)C(=O)O (centres undefined) [Malate]"
unitstring = "min"
observedmeasurement = 13.3

[[record]]
compound = "Nc1ncnc2c1ncn2C1OC(COP(=O)(O)OP(=O)(O)OP(=O)(O)O)C(O)C1O (centres undefined)"
unitstring = "min"
observedmeasurement = 13.8

[[record]]
compound = "Nc1ncnc2c1ncn2C1OC(CO)C(O)C1O (centres undefined)"
unitstring = "min"
observedmeasurement = 6.2

[[record]]
compound = "C[N+](C)(C)CCOP(=O)(O)OP(=O)([O-])OCC1OC(n2ccc(N)nc2=O)C(O)C1O (centres undefined)"
unitstring = "min"
observedmeasurement = 13

